PROCEDURE DETAILS: CCTE_Shafer_MEA_dev_burst_duration_mean: CCTE's Neural Network Formation Assay for Mean Burst Duration, Shafer Lab (AID 2284045)
Calls of active or inactive are those of the source. Rule for the calls: active = hit-call score of the fitted dose curve at least 0.9, where 1 is the maximum; inactive = score below 0.9.
// one of active, inactive, no free text

Reference set (3 entries):
O=P(O)(O)OCCC(F)(F)C(F)(F)C(F)(F)C(F)(F)C(F)(F)C(F)(F)F : inactive
FC(F)(F)C(F)(F)C(F)(F)C(F)(F)C(F)(F)C(F)(F)CC1CO1 (stereo not given) : inactive
COC(=O)CCC(F)(F)C(F)(F)C(F)(F)C(F)(F)F : inactive

For CC(CCl)OP(=O)(OC(C)CCl)OC(C)CCl (stereo not given) , what call appears in the results of this test?
inactive

###

PROCEDURE DETAILS: BSK_BE3C_SRB: Viability Assessment in the BioMAP Diversity Plus: BE3C Assay (AID 2283028);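 note: measured 24 h after chemical dosing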
STATED CONDITIONS: primary human bronchial epithelial cells
The source made the active and inactive calls. How the source made its calls: active means hit-call score of the fitted dose curve at least 0.9, where 1 is the maximum; inactive means score below 0.9.
// one of 1.0 = active, 0.0 = inactive, no free text

Reference set (5 entries):
OCC(F)(F)C(F)(F)C(F)(F)C(F)(F)C(F)(F)C(F)(F)F : 0.0
CC(=O)Nc1ccc(N=Nc2cc(C)ccc2O)cc1 : 0.0
O=C(O)C(F)(F)C(F)(F)C(F)(F)F : 0.0
CCO[Si](CCC(F)(F)C(F)(F)C(F)(F)C(F)(F)C(F)(F)C(F)(F)F)(OCC)OCC : 0.0
O=S(=O)(OCC(F)F)C(F)(F)F : 0.0

For COC(=O)CCC(F)(F)C(F)(F)C(F)(F)C(F)(F)F , what call appears in the results of this test?
0.0

For O=P(O)(O)OCCC(F)(F)C(F)(F)C(F)(F)C(F)(F)C(F)(F)C(F)(F)F , what call appears in the results of this test?
0.0

For FC1CC(F)(F)C(F)(F)C1(F)F (centres undefined) , what call appears in the results of this test?
0.0

For O=S(=O)(OCCOC(F)(F)F)C(F)(F)F , what call appears in the results of this test?
0.0

For C=CC(F)(F)C(F)(F)C(F)(F)C(F)(F)C(F)(F)C(F)(F)C(F)(F)C(F)(F)C=C , what call appears in the results of this test?
0.0

For FC(F)(F)C(F)(F)C(F)(F)C(F)(F)C(F)(F)C(F)(F)C(F)(F)Br , what call appears in the results of this test?
0.0

For CCCCCCCOC(=O)c1ccccc1C(=O)OCCCCCCC , what call appears in the results of this test?
0.0

For O=C(O)C(F)(OC(F)(F)C(F)(OC(F)(F)C(F)(F)C(F)(F)F)C(F)(F)F)C(F)(F)F (centres undefined) , what call appears in the results of this test?
0.0

For O=C(O)C=C(C(F)(F)F)C(F)(F)F , what call appears in the results of this test?
0.0

###

Read-out: Vascular cell adhesion molecule 1 (VCAM1), VCAM1 (gene 7412)
PROCEDURE DETAILS: BSK_hDFCGF_VCAM1: BioMAP Diversity Plus: hDFCGF Assay for Vascular cell adhesion molecule 1 (VCAM1) Biomarker Activity (AID 2283065)
STATED CONDITIONS: primary human foreskin fibroblasts; actives raise or lower the signal
The source made the active and inactive calls. Rule for the calls: active = hit-call score of the fitted dose curve at least 0.9, where 1 is the maximum; inactive = score below 0.9.
// one of 1 (yes) (active), 0 (no) (inactive), no free text

Reference set (8 entries):
Oc1ccc(Nc2ccccc2)cc1 : 1 (yes)
CCc1ccc(C(c2ccc(CC)cc2)C(Cl)Cl)cc1 : 1 (yes)
OCC(F)(F)C(F)(F)C(F)(F)C(F)F : 0 (no)
FC(F)(Br)C(F)(F)C(F)(F)C(F)(F)C(F)(F)C(F)(F)Br : 0 (no)
CCc1c(Br)c(Br)c(Br)c(Br)c1Br : 0 (no)
O=C(O)C(F)(F)C(F)(F)C(F)F : 0 (no)
CCCCCCCCC(F)(F)C(F)(F)C(F)(F)C(F)(F)C(F)(F)C(F)(F)F : 0 (no)
CS(C)(=O)=O : 0 (no)

For C=C(C)C(=O)OCC(F)(F)C(F)(F)C(F)(F)F , what call appears in the results of this test?
0 (no)

For COC(=O)CCC(F)(F)C(F)(F)C(F)(F)C(F)(F)F , what call appears in the results of this test?
0 (no)

For FC(F)(F)C(F)(F)C(F)(F)C(F)(F)C(F)(F)C(F)(F)CCS , what call appears in the results of this test?
0 (no)

For CO[Si](OC)(c1ccccc1)c1ccccc1 , what call appears in the results of this test?
0 (no)

For O=C(O)C(F)(OC(F)(F)C(F)(OC(F)(F)C(F)(F)C(F)(F)F)C(F)(F)F)C(F)(F)F (centres undefined) , what call appears in the results of this test?
0 (no)

For O=C(O)C(F)(F)C(F)(F)C(F)(F)C(F)(F)C(F)(F)C(F)(F)C(F)(F)C(F)(F)C(F)(F)C(F)(F)C(F)(F)C(F)(F)C(F)(F)F , what call appears in the results of this test?
0 (no)

For FC(F)(F)C(F)(F)C(F)(F)C(F)(F)CCI , what call appears in the results of this test?
0 (no)

For FC(F)(F)C(F)(F)C(F)(F)C(F)(F)C(F)(F)C(F)(F)C(F)(F)C(F)(F)F , what call appears in the results of this test?
0 (no)

For O=C(O)C(F)(F)C(F)(F)F , what call appears in the results of this test?
0 (no)

For O=C(CC(=O)C(F)(F)C(F)(F)F)C(F)(F)F , what call appears in the results of this test?
0 (no)

For CCCCCCCCCCCCCCCC[N+](C)(C)Cc1ccccc1 , what call appears in the results of this test?
1 (yes)

###

Read-out: TIMP metallopeptidase inhibitor 1 (TIMP1), TIMP1 (gene 7076)
PROCEDURE DETAILS: BSK_MyoF_TIMP1: BioMAP Diversity Plus: MyoF Assay for TIMP metallopeptidase inhibitor 1 (TIMP1) Biomarker Activity (AID 2284269)
STATED CONDITIONS: primary human lung fibroblasts
Active and inactive are the calls of the source. How the source made its calls: active means hit-call score of the fitted dose curve at least 0.9, where 1 is the maximum; inactive means score below 0.9.
// one of Y for active, N for inactive, no free text

Reference set (3 entries):
Nc1ccc([N+](=O)[O-])cc1O : N
CC(C)(C)C(=O)CC(=O)C(F)(F)C(F)(F)C(F)(F)F : N
CCCCOCCOCCOC(=O)CCCCC(=O)OCCOCCOCCCC : N

Proceed to the following item.
For FC(F)(F)C(F)(F)C(F)(F)C(F)(F)C(F)(F)C(F)(F)C(F)(F)Br , what call appears in the results of this test?
N

###

TARGET UNDER TEST: Nuclear receptor subfamily 1 group I member 2 (Homo sapiens) (UniProt O75469)
Sequence (O75469 whole entry, looked up): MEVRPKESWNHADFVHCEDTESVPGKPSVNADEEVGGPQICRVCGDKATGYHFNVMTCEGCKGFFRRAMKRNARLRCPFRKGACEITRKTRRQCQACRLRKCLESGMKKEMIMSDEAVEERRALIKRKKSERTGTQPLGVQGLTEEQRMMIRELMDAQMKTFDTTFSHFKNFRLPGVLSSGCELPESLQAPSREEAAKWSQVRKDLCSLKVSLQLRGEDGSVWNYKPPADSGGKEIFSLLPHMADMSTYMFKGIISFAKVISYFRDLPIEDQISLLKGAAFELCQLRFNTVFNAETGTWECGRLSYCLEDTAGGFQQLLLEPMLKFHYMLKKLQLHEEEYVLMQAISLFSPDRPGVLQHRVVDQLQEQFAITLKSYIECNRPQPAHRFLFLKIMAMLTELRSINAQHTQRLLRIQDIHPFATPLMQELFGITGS
PROCEDURE DETAILS: ATG_PXR_TRANS: Attagene TRANS-FACTORIAL HepG2 Assay for human Pregnane X Receptor (PXR) (AID 2283008)
Records with an inconclusive call do not appear. Calls of active or inactive are those of the source. The calls were made as follows: active = hit-call score of the fitted dose curve at least 0.9, where 1 is the maximum; inconclusive = response in the unintended direction; inactive = score below 0.9.
// one of active, inactive, no free text

CS(C)(=O)=O : inactive
OCC(F)(F)C(F)(F)C(F)(F)C(F)(F)C(F)(F)C(F)(F)F : inactive

Proceed to the following item.
For O=C(C=Cc1ccccc1)OCC=Cc1ccccc1 , what call appears in the results of this test?
active

###

Read-out: TIMP metallopeptidase inhibitor 1 (TIMP1), TIMP1 (gene 7076)
PROCEDURE DETAILS: BSK_hDFCGF_TIMP1: BioMAP Diversity Plus: hDFCGF Assay for TIMP metallopeptidase inhibitor 1 (TIMP1) Biomarker Activity (AID 2283062)
STATED CONDITIONS: primary human foreskin fibroblasts; actives raise or lower the signal
Activity calls are given as the source filed them. The calls were made as follows: active = hit-call score of the fitted dose curve at least 0.9, where 1 is the maximum; inactive = score below 0.9.
// one of class 1 = active, class 0 = inactive, no free text

Reference set (2 entries):
O=C(O)C(F)(F)C(F)(F)C(F)F : class 0
CCCCCCCCC(F)(F)C(F)(F)C(F)(F)C(F)(F)C(F)(F)C(F)(F)F : class 0

For CCCCCCC(C)OC(=O)CCCCC(=O)OC(C)CCCCCC (stereo not drawn) , what call appears in the results of this test?
class 0

For CC(CCl)OP(=O)(OC(C)CCl)OC(C)CCl (stereo not drawn) , what call appears in the results of this test?
class 0

###

PROCEDURE DETAILS: BSK_BT_Bcell_Proliferation: Viability Assessment in the BioMAP Diversity Plus: BT Assay for B cell Proliferation (AID 2284227)
STATED CONDITIONS: primary human B cells with PBMC
Active and inactive are the calls of the source. Rule for the calls: active = hit-call score of the fitted dose curve at least 0.9, where 1 is the maximum; inactive = score below 0.9.
ASSAY READOUT: outcome

CCc1c(Br)c(Br)c(Br)c(Br)c1Br : inactive
O=C(O)C(F)(F)C(F)(F)C(F)(F)F : inactive
FC(F)(F)C(F)(F)C(F)(F)C(F)(F)C(F)(F)C(F)(F)C(F)(F)C(F)(F)F : inactive
